# testSystem: T1, TNFR1 (Homo sapiens, UniProt P19438)
# T1 chain: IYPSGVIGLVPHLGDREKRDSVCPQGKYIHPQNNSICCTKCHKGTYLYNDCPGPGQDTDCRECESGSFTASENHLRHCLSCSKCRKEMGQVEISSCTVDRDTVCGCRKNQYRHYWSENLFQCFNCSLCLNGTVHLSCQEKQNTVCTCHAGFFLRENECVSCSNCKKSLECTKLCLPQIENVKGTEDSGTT
# methodDescription: yeast display SC50
Items are presented alongside their recorded apparent Kd (screen).
Numeric answer plus unit only.

Consider the worked cases shown below.
Challenge: apparent Kd (screen) lookup needed for D59H (designed binder) MTLQELLREEALRRAEAEAFRYALELLAEKFPEQKEYLLDLAEEIESQIRSLSGVDVEHVRKFLDKEWAWVKELLAEHPAELAEVEAARAARLAELRAEVEAKVAA , thanks.
Response given: 0.869 nM

Challenge: Can you check P79L (designed binder) MTLQELLREEALRRAEAEAFRYALELLAEKFPEQKEYLLDLAEEIESQIRSLSGVDVEDVRKFLDKEWAWVKELLAEHLAELAEVEAARAARLAELRAEVEAKVAA next?
Response given: 0.718 nM

Challenge: Lookup G54H (designed binder) MTLQELLREEALRRAEAEAFRYALELLAEKFPEQKEYLLDLAEEIESQIRSLSHVDVEDVRKFLDKEWAWVKELLAEHPAELAEVEAARAARLAELRAEVEAKVAA
Response given: 11.4 nM

Further cases:
Challenge: // query apparent Kd (screen) value for entry L39P (designed binder) MTLQELLREEALRRAEAEAFRYALELLAEKFPEQKEYLPDLAEEIESQIRSLSGVDVEDVRKFLDKEWAWVKELLAEHPAELAEVEAARAARLAELRAEVEAKVAA
Response given: 5.84 nM

Every entry's value here was drawn from paper PMC12416549.
